# TEST NAME: Microsomal stability in mice
# Format: in vitro ADME
# CONDITION LABEL: mouse microsomes
QUANTITY KIND: Microsomal stability in mice t1/2

I'd like to know its Microsomal stability in mice t1/2. The compound in question is O=c1cc(-c2ccc(O)c(O)c2)oc2cc(O)cc(O)c12 [luteolin, reference compound] >1 h

What value of Microsomal stability in mice t1/2 has been reported for the following compound? `CCCCOc1c(-c2ccc(O)c(O)c2)oc2cc(O)cc(O)c2c1=O` >1 h

Recorded Microsomal stability in mice t1/2 of CC(c1ccc(O)c(O)c1)c1cc(=O)c2c(O)cccc2o1 (stereo not drawn) [(13b)] , please. >1 h

What measured Microsomal stability in mice t1/2 goes with `O=c1c(OCCO)c(-c2ccc(O)c(O)c2)oc2cc(O)cc(O)c12` ? >1 h

I'd like to know its Microsomal stability in mice t1/2. The compound in question is O=C(Nc1ccc(O)c(O)c1)c1cc(=O)c2c(O)cccc2o1 [(24a)] 1 h

----------
# TEST NAME: Kinetic solubility
# Assay type: physicochemical
# Procedure: The solubility and stability of some compounds of the invention and known compounds were evaluated.
QUANTITY KIND: Kinetic solubility Sk (µM)
Answer in µM, number only, no unit symbol.

{"columns": ["MOLECULE", "READOUT UNIT", "Kinetic solubility Sk"],
 "data": [
  ["O=c1cc(Cc2ccc(O)c(O)c2)oc2cccc(O)c12 [(13a)]", "µM", 63],
  ["O=c1cc(-c2ccc(O)c(O)c2)oc2cc(O)cc(O)c12 [luteolin, reference compound]", "µM", 21]
]}

Value lookup for Kinetic solubility Sk; key = O=c1c(O)c(-c2ccc(O)c(O)c2)oc2cc(O)cc(O)c12 [quercetin, reference compound] 16

----------
# STUDY SYSTEM: RNA-dependent RNA polymerase (SARS-CoV-2) (Severe acute respiratory syndrome coronavirus 2, UniProt P0DTD1)
# TEST NAME: in vitro enzymatic assay of RdRp activity (AlphaScreen detection)
# Assay type: biochemical
# CONDITION LABEL: compound at 25 µM; read-out: % inhib. (25 µM)
Listed here: items and their measured inhibition at 25 µM.
Quick note: give the figure in %, leave out the unit.

Before answering, review these 5 worked examples.
{"columns": ["COMPOUND", "inhibition at 25 µM, %"],
 "data": [
  ["O=c1cc(C(CCCC(F)(F)F)c2ccc(O)c(O)c2)oc2cccc(O)c12 (stereo not drawn) [(13d)]", 8],
  ["Cc1c(-c2ccc(O)c(O)c2)oc2cc(O)cc(O)c2c1=O", 94],
  ["O=C(Oc1ccc(O)c(O)c1)c1cc(=O)c2c(O)cccc2o1 [(24b)]", 95],
  ["O=c1cc(CCc2ccc(O)c(O)c2)oc2cccc(O)c12", 80],
  ["CCCCOc1c(-c2ccc(O)c(O)c2)oc2cc(O)cc(O)c2c1=O", 52]
]}

Shifting focus to the compound that follows.
Tell me the measured inhibition at 25 µM of `O=C(NCCNC(=O)c1cc(=O)c2c(O)cccc2o1)c1ccc(O)c(O)c1` , please. 79

----------
A collection of compounds and their measured log10 IC50
# STUDY SYSTEM: RNA-dependent RNA polymerase (SARS-CoV-2) (Severe acute respiratory syndrome coronavirus 2)
Plainly stated, the numbers are log10 of IC50 given in µM.

Check out these entries, answers already filled in.
{"columns": ["COMPOUND", "RECORDED RESULT"],
 "data": [
  ["O=c1cc(Cc2ccc(O)c(O)c2)oc2cccc(O)c12 [(13a)]", 0.93],
  ["O=C(OCCc1ccc(O)c(O)c1)c1cc(=O)c2c(O)cccc2o1 [(24c)]", 1.64],
  ["Cc1c(-c2ccc(O)c(O)c2)oc2cc(O)cc(O)c2c1=O", 0.63],
  ["O=c1c(OCCCO)c(-c2ccc(O)c(O)c2)oc2cc(O)cc(O)c12", 0.75],
  ["O=C(NCCNC(=S)Nc1ccc(O)c(O)c1)c1cc(=O)c2c(O)cccc2o1", 0.53]
]}

For the compound shown here, `O=c1c(OCCO)c(-c2ccc(O)c(O)c2)oc2cc(O)cc(O)c12` , give the reported log10 IC50. 0.79

Which log10 IC50 is reported for this compound? `O=c1cc(CCc2ccc(O)c(O)c2)oc2cccc(O)c12` 0.76

From: patent EP4215522A1
